B1: MIA2 (parent)
chain: SVIEPVQESSFRSRKIAVEDENDL

# Variants of: B1
# methodNotes: protein stability index of a GFP-peptide fusion (GPS, HEK-293T) (PSI 1-6); higher = more stable;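 note: lentivirally expressed fusions sorted by FACS into six bins by GFP to DsRed ratio, PSI derived from sequencing read proportions per bin multiplied by bin number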
# conditionInfo: c terminus: a fixed tail appended
Answer not met if protein stability index is under 5, and met if it is 5 or more.

variantSpec | assignedClass
E4P | met
E8Y | not met
E19R | not met
S9Y | met
V6H | met
S10F | not met

State whether the measured protein stability index reaches 5, counting equality as reaching it, for K15V
met

State whether the measured protein stability index reaches 5, counting equality as reaching it, for K15A
met

State whether the measured protein stability index reaches 5, counting equality as reaching it, for I3R
met

Data credit: the supplement of paper PMC10567573
